Target: T1, EsCas13d, nuclease-dead (Eubacterium siraeum, UniProt B0MS50, R295A;H300A;R849A;H854A)
T1 sequence: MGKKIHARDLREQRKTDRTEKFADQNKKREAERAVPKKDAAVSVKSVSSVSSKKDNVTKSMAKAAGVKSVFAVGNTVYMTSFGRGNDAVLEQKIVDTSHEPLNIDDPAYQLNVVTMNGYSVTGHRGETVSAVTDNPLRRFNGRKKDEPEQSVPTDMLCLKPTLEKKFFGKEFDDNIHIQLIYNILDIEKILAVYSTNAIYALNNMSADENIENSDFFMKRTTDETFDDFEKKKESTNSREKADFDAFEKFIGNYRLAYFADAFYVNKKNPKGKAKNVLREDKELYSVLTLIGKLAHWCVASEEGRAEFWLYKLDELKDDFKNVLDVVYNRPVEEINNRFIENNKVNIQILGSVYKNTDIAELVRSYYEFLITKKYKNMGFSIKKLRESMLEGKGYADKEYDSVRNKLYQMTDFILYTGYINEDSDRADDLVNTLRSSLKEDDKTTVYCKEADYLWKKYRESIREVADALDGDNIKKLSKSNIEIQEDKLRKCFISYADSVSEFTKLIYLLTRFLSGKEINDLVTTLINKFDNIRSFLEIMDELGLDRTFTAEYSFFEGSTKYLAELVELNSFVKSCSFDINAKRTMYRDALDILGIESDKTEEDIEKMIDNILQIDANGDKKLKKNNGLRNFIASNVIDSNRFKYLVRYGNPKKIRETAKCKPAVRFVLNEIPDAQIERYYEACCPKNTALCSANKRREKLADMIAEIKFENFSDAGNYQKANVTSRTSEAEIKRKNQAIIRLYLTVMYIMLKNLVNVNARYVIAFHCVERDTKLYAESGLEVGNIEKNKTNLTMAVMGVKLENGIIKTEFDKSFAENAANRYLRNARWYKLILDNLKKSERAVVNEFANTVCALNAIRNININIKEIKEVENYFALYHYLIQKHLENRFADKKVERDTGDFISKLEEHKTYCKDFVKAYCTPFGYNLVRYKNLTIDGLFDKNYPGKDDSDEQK
Test: crRNA (strand 1, pre-loaded); Mg2+; 40 mM Tris-HCl pH 7.5, 150 mM NaCl, 6 mM MgCl2, 1 mM DTT, 0.1% Tween-20, 0.2 mg/ml BSA; 25 C; 10 min per concentration, then washed
Settings: tags: His6-TwinStrep-SUMO cleaved; N-terminal SNAP kept (SNAP-Surface 488); label: 3' end held by stalled T7 RNA polymerase
quantityKind: pKd
Notebook: values listed as pKd are -log10 of the concentration (mol/L).

Requested read-out: pKd. Entry: target 3 insU 3' of 22,insA 3' of 21 (mixed) RNA 1: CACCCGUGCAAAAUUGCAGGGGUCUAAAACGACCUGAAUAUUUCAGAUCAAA RNA 2: GGGAAUGGAUCCACAUCUACGAAUUCGUUUUUAUGAUCUGAAAUAUUCAGGUCUGCAGAUCGGAAGAGCACACGU 7.55

Report pKd for target 3 insU 3' of 19,insU 3' of 3 (mixed) RNA 1: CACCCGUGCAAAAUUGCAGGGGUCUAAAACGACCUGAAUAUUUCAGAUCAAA RNA 2: GGGAAUGGAUCCACAUCUACGAAUUCGUUUUUGUAUCUGAAAUAUUCAGGUUCUGCAGAUCGGAAGAGCACACGU please. 6.98

Please look up its pKd: target 1 insC 3' of 14,insU 3' of 7 (mixed) RNA 1: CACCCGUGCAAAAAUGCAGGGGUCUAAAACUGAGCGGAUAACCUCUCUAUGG RNA 2: GGGAAUGGAUCCACAUCUACGAAUUCGUACCAUAGAGACGGUUAUCUCGCUCACCGAGAUCGGAAGAGCACACGU 7.39

Consider the binder target 1 U3A,A16C (mixed) RNA 1: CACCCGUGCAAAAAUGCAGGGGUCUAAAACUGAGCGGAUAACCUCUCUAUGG RNA 2: GGGAAUGGAUCCACAUCUACGAAUUCGUACCAUAGCGAGGUUAUCCGCACACCGAGAUCGGAAGAGCACACGU and give its measured pKd. 7.12
